test system: Cullin-3 (CUL3) neddylation; assay: AlphaLISA assay for Cullin-3 (CUL3) neddylation in TF 1 cells; assay type: cell-based; settings: Homo sapiens, TF-1, 3 h, 3 hours treatment
Provide the reported IC50 of each item.

QUERY: State its IC50 on Cullin-3 (CUL3) neddylation: C=C(CN1CCC1)C(=O)NCc1nn(-c2ccccc2)c2c1[C@H](c1ccc(F)cc1)[C@H](NC(=O)c1cccc(C(F)(F)F)c1)C(=O)N2CC (racemic) [Compound I-49]
RESULT: ≤ 100 nM

QUERY: Same question for C=C(CN(C)CC1COC1)C(=O)NCc1nn(-c2ccccc2)c2c1[C@H](c1ccc(F)cc1)[C@H](NC(=O)c1cccc(C(F)(F)F)c1)C(=O)N2CC [Compound I-574] please.
RESULT: ≤ 100 nM

QUERY: Same question for CCN1C(=O)[C@@H](NC(=O)c2cccc(C(F)(F)F)c2)[C@@H](C2CC2)c2c(C(=O)N(C)C(C)C#N)nn(C3CCOCC3)c21 (mixture of isomers) [Compound I-349] please.
RESULT: ≤ 100 nM

QUERY: Same question for CCN1C(=O)[C@H](NC(=O)c2cccc(C(F)(F)F)c2)[C@H](c2ccc(F)cc2)c2c(C(=O)N3CC[C@@H]3C#N)nn(-c3ccccc3)c21 [Compound I-457] please.
RESULT: > 1000 nM

We now examine a further compound.
QUERY: State its IC50 on Cullin-3 (CUL3) neddylation: C=CC(=O)NCc1nn(-c2ccccc2)c2c1[C@H](c1ccc(F)cc1)[C@H](NC(=O)c1cccc(C(F)(F)F)c1)C(=O)N2CC (racemic) [Compound I-202]
RESULT: 100 to 1000 nM
